Molecular target: Opioid Kappa Receptor (recombinant human, HEK293 cells) (Homo sapiens (Human), UniProt P41145)
Experiment: cell-based
Details: read-out: EC50
observedProperty: EC50 (nM)
Response body: numeric value in nM, unit text excluded.

>>> resultnumber("CC(C)C[C@@H](NC(=O)[C@@H](Cc1ccccc1)NC(=O)[C@H](N)Cc1ccccc1)C(=O)N[C@H](CCCCN)C(=O)N1CCC(NC(=O)/C=C/C(=O)O)CC1 [Compound 13-20]")
18

Below: the item to evaluate.
Report EC50 for CNC(=O)NC1CCN(C(=O)[C@@H](CCCCN)NC(=O)[C@@H](CC(C)C)NC(=O)[C@@H](Cc2ccccc2)NC(=O)[C@H](N)Cc2ccccc2)CC1 [Compound 13-60]
14.3

----------
Target: recombinant human mu (MOR) opioid receptor (Homo sapiens (Human), UniProt P35372)
Assay: Opioid receptor radioligand binding assay, MOR
Settings: HEK293 cell membranes, 0.5 nM [3H]DAMGO; read-out: MOR, IC50
Square brackets hold non-standard residues; d marks the D form. Peptide text beside a SMILES is read from it. * marks the point of attachment. Piperidin1yl(4-NH2,4-CO2Me) = COC(=O)C1(N)CCN(*)CC1; Pyrrolidinyl(3-NH2,3-CO2Me) = COC(=O)C1(N)CCN(*)C1
observedProperty: IC50

# count of solved cases: 4
>>> result("COC(=O)C1(N)CCN(C(=O)[C@@H](CCCCN)NC(=O)[C@H]2CCCN2C(=O)[C@@H](Cc2ccccc2)NC(=O)[C@H](N)Cc2ccccc2)C1 (some centres unmarked) [Compound 92] (H-[dF][dF][dP][dK]-{Pyrrolidinyl(3-NH2,3-CO2Me)})")
"> 10 µM"
>>> result("CCNC(=O)C(=O)NC1CCN(C(=O)[C@@H](CCCCN)NC(=O)[C@@H](CC(C)C)NC(=O)[C@@H](Cc2ccccc2)NC(=O)[C@H](N)Cc2ccccc2)CC1")
"8.43 µM"
>>> result("CC(C)C[C@@H](NC(=O)[C@@H](Cc1ccccc1)NC(=O)[C@H](N)Cc1ccccc1)C(=O)N[C@H](CCCCN)C(=O)N1CCN(C(=O)N(C)C)CC1")
"> 10 µM"
>>> result("CNC(=O)C(=O)NC1CCN(C(=O)[C@@H](CCCCN)NC(=O)[C@@H](CC(C)C)NC(=O)[C@@H](Cc2ccccc2)NC(=O)[C@H](N)Cc2ccccc2)CC1")
"> 10 µM"

Below: the item to evaluate.
Report IC50 for COC(=O)C1(N)CCN(C(=O)[C@@H](CCCCN)NC(=O)[C@H]2CCCN2C(=O)[C@@H](Cc2ccccc2)NC(=O)[C@H](N)Cc2ccccc2)CC1 [Compound 89] (H-[dF][dF][dP][dK]-{Piperidin1yl(4-NH2,4-CO2Me)})
> 10 µM

----------
Target: recombinant human delta (DOR) opioid receptor (Homo sapiens (Human))
Sequence (P41143 whole entry, looked up): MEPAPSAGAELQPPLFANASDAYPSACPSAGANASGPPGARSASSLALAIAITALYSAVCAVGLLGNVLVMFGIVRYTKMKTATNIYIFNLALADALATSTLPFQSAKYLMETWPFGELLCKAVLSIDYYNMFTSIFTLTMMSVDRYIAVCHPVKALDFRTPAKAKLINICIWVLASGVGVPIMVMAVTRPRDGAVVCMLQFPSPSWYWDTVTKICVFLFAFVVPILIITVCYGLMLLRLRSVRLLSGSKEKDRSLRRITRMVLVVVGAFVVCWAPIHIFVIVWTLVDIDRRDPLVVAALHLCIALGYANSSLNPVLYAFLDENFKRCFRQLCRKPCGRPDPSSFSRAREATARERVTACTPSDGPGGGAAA
Experiment: Opioid receptor radioligand binding assay, DOR
Details: HEK293 cell membranes, 0.5 nM [3H]DADLE; read-out: DOR, IC50
Square brackets hold non-standard residues; d marks the D form. Peptide text beside a SMILES is read from it. * marks the point of attachment. ξ: configuration not given here. Piperidin1yl(4-NH2,4-CO2Me) = COC(=O)C1(N)CCN(*)CC1; dAla(cPr) = N[C@H](CC1CC1)C(=O)O; Aic = NC1(C(=O)O)Cc2ccccc2C1; ξL = CC(C)CC(N)C(=O)O
observedProperty: IC50

# count of solved cases: 5
>>> result("COC(=O)[C@@H](N)CNC(=O)[C@@H](CCCCN)NC(=O)[C@@H](CC(C)C)NC(=O)[C@@H](Cc1ccccc1)NC(=O)[C@H](N)Cc1ccccc1 [Compound 13-12]")
"> 10 µM"
>>> result("COC(=O)C1(N)CCN(C(=O)[C@@H](CCCCN)NC(=O)[C@@H](CC2CC2)NC(=O)[C@@H](Cc2ccccc2)NC(=O)[C@H](N)Cc2ccccc2)CC1 [Compound 112] (H-[dF][dF][dAla(cPr)][dK]-{Piperidin1yl(4-NH2,4-CO2Me)})")
"> 10 µM"
>>> result("COC(=O)C1(N)CCN(C(=O)[C@@H](CCCCN)NC(=O)C(CC(C)C)NC(=O)[C@@H](Cc2ccccc2)NC(=O)C2(N)Cc3ccccc3C2)CC1 (stereo partly shown) [Compound 158] (H-[Aic][dF][ξL][dK]-{Piperidin1yl(4-NH2,4-CO2Me)})")
"> 10 µM"
>>> result("COCCOCCNC(=O)[C@@H](CCCCN)NC(=O)[C@@H](CC(C)C)NC(=O)[C@@H](Cc1ccccc1)NC(=O)[C@H](N)Cc1ccccc1 [Compound 13-4]")
"> 10 µM"
>>> result("CNC(=O)N1CCN(C(=O)[C@@H](CCCCN)NC(=O)[C@@H](CC(C)C)NC(=O)[C@@H](Cc2ccccc2)NC(=O)[C@H](N)Cc2ccccc2)CC1 [Compound 13-58]")
"> 10 µM"

Report IC50 for COC(=O)/C=C/C(=O)N1CCN(C(=O)[C@@H](CCCCN)NC(=O)[C@@H](CC(C)C)NC(=O)[C@@H](Cc2ccccc2)NC(=O)[C@H](N)Cc2ccccc2)CC1 [Compound 13-24]
> 10 µM

Report IC50 for CC(C)C[C@@H](NC(=O)[C@@H](Cc1ccccc1)NC(=O)[C@H](N)Cc1ccccc1)C(=O)N[C@H](CCCCN)C(=O)NC1CCN(C(=O)C(=O)N(C)C)CC1 [Compound 13-17]
> 10 µM

Report IC50 for CC(C)C[C@@H](NC(=O)[C@@H](Cc1ccccc1)NC(=O)[C@H](N)Cc1ccccc1)C(=O)N[C@H](CCCCN)C(=O)NC1CCN(C(=O)C(N)=O)CC1 [Compound 13-34]
> 10 µM

Report IC50 for COC(=O)/C=C/C(=O)N1CCC(NC(=O)[C@@H](CCCCN)NC(=O)[C@@H](CC(C)C)NC(=O)[C@@H](Cc2ccccc2)NC(=O)[C@H](N)Cc2ccccc2)CC1 [Compound 13-18]
> 10 µM

Report IC50 for COC(=O)C1(N)CCN(C(=O)[C@@H](CCCNC(=N)N)NC(=O)[C@H]2CCCN2C(=O)[C@@H](Cc2ccccc2)NC(=O)[C@H](N)Cc2ccccc2)CC1 [Compound 22] (H-[dF][dF][dP][dR]-{Piperidin1yl(4-NH2,4-CO2Me)})
> 10 µM
